tested on: IL-6; test: Human monocyte assay (LPS-induced): IL-6; assay type: cell-based; conditions: LPS stimulated human monocytes, 5 h
Record form. Attribute: IC50. Fill in for each entry.
Kindly provide the numeric value in nM only, without the unit symbol.

Lab note: measured IC50 of C/C=C/C(O)C(C)/C=C/C(=NOCC(=O)N1CCCCC1)C(C)C(O)C(C)C1OC(=O)/C(OC)=C/C(C)=C/C(C)C(O)C(CC)C(O)C(C)C/C(C)=C/C=C/C1OC (stereo in doubt) was 1400

Lab note: measured IC50 of C/C=C/C(O)C(C)/C=C/C(=N\O)C(C)C(O)C(C)C1OC(=O)/C(OC)=C/C(C)=C/C(C)C(O)C(CC)C(O)C(C)C/C(C)=C/C=C/C1OC (centres unmarked) was 300

Lab note: measured IC50 of C/C=C/C(O)C(C)/C=C/C(=O)C(C)C(O)C(C)C1OC(=O)/C(OC)=C/C(C)=C/C(C)C(O)C(CC)C(O)C(C)C/C(C)=C/C=C/C1OC (centres unmarked) was 600

Lab note: measured IC50 of C/C=C/C(O)C(C)/C=C/C(=NOCC(=O)N1CCC(N2CCCCC2)CC1)C(C)C(O)C(C)C1OC(=O)/C(OC)=C/C(C)=C/C(C)C(O)C(CC)C(O)C(C)C/C(C)=C/C=C/C1OC (stereo in doubt) was 150
